Note that class boundaries on melting point are lower band = under 30 °C, central band = from 30 °C up to 100 °C, upper band = 100 °C and over

Solved entries:
INSERT INTO assay_data (molecule, qualitative_label) VALUES
  ('Oc1ccc2cccc(O)c2c1', 'upper band'),
  ('O=C(Nc1ccc(Br)cc1)c1c(O)cccc1O', 'upper band'),
  ('COc1ccc(F)cc1', 'lower band');

Category of `CCC(=O)C=Cc1ccccc1` , please.
central band

Hi there! Could you help me figure out the category for `Cc1c(Cl)cccc1[N+](=O)[O-]` please?
central band

The entry to classify is `CCCCCCCCC(CCCCCCCC)C(=O)O` ; which class holds it?
central band

Dear colleague, I would appreciate it if you could identify the bin for `C(=NC1CCCCC1)=NC1CCCCC1` and reply at your convenience.
central band

Exercise: read the entry C=CC(=O)OCC(CC)CCCC (stereo unspecified) and state which class it falls under.
lower band

Which band does `S=c1[nH]c2ccccc2[nH]1` fall in?
upper band
